Origin of measurements: PubChem BioAssay AID2014

assay_target: Polyadenylate-binding protein 1 (Homo sapiens)
protocol_details: PABP poly(A) RNA binding inhibitors, primary screen, biochemical, fluorescence polarization, uHTS (AID 2014);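 further: calls also rest on retests at 20 µM and on dose response follow-up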
run_parameters: at 35 µM, stronger effect = higher value
Hit rate of the full screen: of about 290,000 compounds, about 3,000 (1%) were called active. The list comes from a sample in which actives are over-represented; it also holds close analogues and randomly drawn compounds.
Outcome label depends on inhibition relative to 7%: at/above gives Yes, below gives No.

Example results:
S=C(NCc1ccco1)Nc1ccc2c(c1)OCCO2 | Yes
Cc1nn(Cc2ccccc2)c2c1C(c1ccccc1)C(C#N)=C(N)O2 (stereo unspecified) | No
Cc1cccc(OCC(=O)NC2CC(C)(C)NC(C)(C)C2)c1 | No
S=C(NCc1ccc2c(c1)OCO2)NCc1ccco1 | No
COc1ccc2cc(C(=O)NCC3CCCO3)[nH]c2c1 (stereo unspecified) | No
COc1cccc(NC(=S)NCc2ccco2)c1 | No

In: Is inhibition at least 7%? Consider Cc1cc(C)c2c3c(sc2n1)C(c1ccccc1)C(C#N)=C(N)O3 (stereo unspecified)
Out: Yes

In: Is inhibition at least 7%? Consider O=C(COc1ccc(/C=N/NC(=O)c2ccc(O)cc2)cc1)Nc1ccc([N+](=O)[O-])cc1
Out: Yes

In: Is inhibition at least 7%? Consider Cc1cc(=O)n2[nH]c(-c3sccc3-n3c(C)ccc3C)cc2n1
Out: Yes

In: Is inhibition at least 7%? Consider COc1ccccc1-n1c(-c2cc(-c3ccco3)[nH]n2)n[nH]c1=S
Out: Yes

---

assay_target: Polyadenylate-binding protein 1 (Homo sapiens)
protocol_details: PABP poly(A) RNA binding inhibitors, primary screen, biochemical, fluorescence polarization, uHTS (AID 2014);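 further: calls also rest on retests at 20 µM and on dose response follow-up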
run_parameters: at 35 µM, stronger effect = higher value
Out of some 290,000 compounds screened, about 3,000 (1%) were called active. What follows is part of a selection rich in actives, with near analogues and random picks from the rest.
reported_property: inhibition (%)
Express the result in % but write the number alone.

CCN1C(=O)/C(=c2\s/c(=C3\Sc4ccccc4N3C)c(=O)n2C)N(C)C1=S | -6.7

In: Please give the measured inhibition for this molecule: COc1ccc(CNC(=O)c2cc3c(=O)n4ccccc4nc3n(CC3CCCO3)c2=N)cc1 (stereo unspecified)
Out: -5.2

In: Please give the measured inhibition for this molecule: Cc1ccc(N2CCN(C(=O)c3cccs3)CC2)c(C)c1
Out: 3.2

In: Please give the measured inhibition for this molecule: NNC(=O)c1cnn(-c2ccccc2)c1C(F)(F)F
Out: 10.3

In: Please give the measured inhibition for this molecule: O=C(NNS(=O)(=O)c1ccccc1)c1cnn(-c2ccc(Cl)cc2)c1C(F)(F)F
Out: 11.5

---

assay_target: Polyadenylate-binding protein 1 (Homo sapiens)
protocol_details: PABP poly(A) RNA binding inhibitors, primary screen, biochemical, fluorescence polarization, uHTS (AID 2014);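 further: calls also rest on retests at 20 µM and on dose response follow-up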
run_parameters: at 35 µM, stronger effect = higher value
The campaign covered roughly 290,000 compounds. About 3,000 (1%) were called active. The entries come from a sample that favours actives as a whole.
reported_property: inhibition (%)
Express the result in % but write the number alone.

Recorded results for 5 compounds are shown here.
Cc1cc(=O)oc(C)c1C(=O)Nc1cnc2ccccc2c1 | 104
CCOC(=O)CNC(=O)CSc1ncccc1-c1nc2ccccc2[nH]1 | 0.2
CC1=NN(C(N)=S)C(=O)C1N=Nc1cc(Cl)ccc1Cl (stereo not drawn) | 11.1
CC1(C)Oc2ccc3ccc(=O)oc3c2/C(=C/NCCO)C1=O | 51.8
C/C=C(/C)C(=O)OC1Cc2c(ccc3ccc(=O)oc23)OC1(C)C (stereo not drawn) | 5.5

In: Please give the measured inhibition for this compound: COCCN1C=C2C(=O)C(C)(OC(=O)C3CCCC3)C(=O)C=C2C=C1c1ccsc1 (stereo not drawn)
Out: 61

In: Please give the measured inhibition for this compound: CCC(=O)Nc1ccc(S(=O)(=O)Nc2c(NC)c3ccccc3oc2=O)cc1
Out: 0.6

In: Please give the measured inhibition for this compound: COCCn1c(N)c(N(Cc2ccccc2)C(=O)C2CCCCC2)c(=O)[nH]c1=O
Out: 4.9

In: Please give the measured inhibition for this compound: CC(C)(C)OC(=O)NC(Cc1ccccc1)C(=O)NC(CSC1CCCCO1)C(=O)NN (stereo not drawn)
Out: 1.1

In: Please give the measured inhibition for this compound: N#CC1=C(N)Oc2c(sc3ccccc23)C1c1ccco1 (stereo not drawn)
Out: 86.3

In: Please give the measured inhibition for this compound: Cc1cc(=O)oc(C)c1C(=O)NCCN(C)Cc1ccccc1
Out: -13.8

In: Please give the measured inhibition for this compound: N#CC1=C(N)Oc2c(ccc3cccnc23)C1c1ccncc1 (stereo not drawn)
Out: 10.6

In: Please give the measured inhibition for this compound: Cc1c(C(=O)N2CCN(c3ccc(F)cc3)CC2)oc2c1C(=O)CCC2
Out: 5.7

In: Please give the measured inhibition for this compound: O=C(NC1CCCC1)C1CC(=O)N(c2ccc(F)cc2)C1 (stereo not drawn)
Out: -2.5
